Reported GI50 values are given for each entry in this list.
Test system: HCC 2998
Assay: NCI tumour cell line growth inhibition, 48 h
The source made the active and inactive calls. Rule as the data show it: active = GI50 up to about 1.1 µM and inactive = higher.
outcomeMeasure: GI50

{"compound": "CC1=NN(c2nc(N)nc(CSc3nc4n(c(=S)n3)CCN4)n2)C(C)(C)C1", "outcomeMeasure": "GI50", "result": "> 100 µM (inactive)"}
{"compound": "COC(=O)[C@H](Cc1c[nH]c2ccccc12)NC(=O)c1ccccc1I", "outcomeMeasure": "GI50", "result": "26.4 µM (inactive)"}
{"compound": "COc1ccc(/C=N/N=C(\\N)NO)c(OC)c1", "outcomeMeasure": "GI50", "result": "12.2 µM (inactive)"}
{"compound": "COc1ccc(-c2nnc3c4ccccc4sn23)cc1", "outcomeMeasure": "GI50", "result": "17 µM (inactive)"}
{"compound": "C[C@@H](CC(O)C(O)C(C)(C)O)C1CCC23CC12CCC1[C@@]2(C)CCC(O)C(C)(C)C2CC(OC2OC(CO)C(O)C(O)C2O)[C@]13C (stereo not given in full)", "outcomeMeasure": "GI50", "result": "> 10 µM (inactive)"}
{"compound": "O=C(c1cc(O)ccc1O)c1ccccc1C(Cl)(Cl)Cl", "outcomeMeasure": "GI50", "result": "> 100 µM (inactive)"}
{"compound": "COc1ccc(/C=[N+](\\[O-])[C@H](COCc2ccccc2)c2ccccc2)cc1", "outcomeMeasure": "GI50", "result": "> 100 µM (inactive)"}
{"compound": "COc1ccc(/N=C(/C[S+]([O-])c2ccc(C)cc2)C(F)(F)F)cc1 (stereo not given)", "outcomeMeasure": "GI50", "result": "41 µM (inactive)"}
{"compound": "Cc1ccc([S+]([O-])(=Nc2ccccc2)C(C(C)C)C(C)(C)Cl)cc1 (stereo not given)", "outcomeMeasure": "GI50", "result": "21.6 µM (inactive)"}
{"compound": "COc1cccc2c1C(CO)N1C(C#N)C3CC(C(=O)O)C(C1C2)N3C (stereo not given)", "outcomeMeasure": "GI50", "result": "0.405 µM (active)"}

====

Quick reference: GI50 of the listed items.
Tested on: T47D
Test: NCI tumour cell line growth inhibition, 48 h
The source made the active and inactive calls. Cut-off read from the data, not from the text of the source: active = GI50 up to about 1.1 µM and inactive = higher. Residues, ends and D or L forms follow the SMILES beside them. *: point of attachment. Cbz = O=C(OCc1ccccc1)*; Boc = CC(C)(C)OC(=O)*; OSu = O=C1CCC(=O)N1O*; Bn = c1ccc(C*)cc1

{"molecule": "CC(C)(C)OC(=O)NC(Cc1ccc(OCc2ccccc2)cc1)C(=O)NC(CCCCNC(=O)OCc1ccccc1)C(=O)NC(CCCCNC(=O)OCc1ccccc1)C(=O)ON1C(=O)CCC1=O (stereo not drawn) (Boc-Tyr(Bn)-Lys(Cbz)-Lys(Cbz)-OSu; configuration not given here)", "GI50": "21 µM (inactive)"}
{"molecule": "CC(NNC(=O)c1cc[n+]([BH2-]C#N)cc1)c1ccc(F)cc1 (stereo not drawn)", "GI50": "> 100 µM (inactive)"}
{"molecule": "CC1C(c2ccccc2)OP(=O)(OC(C#N)c2ccccc2)N1C (stereo not drawn)", "GI50": "40.8 µM (inactive)"}
{"molecule": "COC1(c2cccs2)c2ccccc2C(OC)(c2cccs2)c2ccccc21 (stereo not drawn)", "GI50": "85.7 µM (inactive)"}
{"molecule": "CC(=O)OC(C(=O)NNC(=O)OC(C)(C)C)c1ccccc1 (stereo not drawn)", "GI50": "> 100 µM (inactive)"}
{"molecule": "O=C(NC(Cc1c[nH]cn1)C(=O)N1CCCC1)C1CCCC1 (stereo not drawn)", "GI50": "> 10 µM (inactive)"}
{"molecule": "OC1(c2ccccc2)CSc2ncnn21 (stereo not drawn)", "GI50": "> 100 µM (inactive)"}
{"molecule": "CC(C)OC(=O)c1ccc(CCC2=CC(=O)C=CC2=O)cc1", "GI50": "2.17 µM (inactive)"}

====

Tested on: CCRF-CEM
Assay: NCI tumour cell line growth inhibition, 48 h
Activity calls are given as the source filed them. Rule as the data show it: active = GI50 up to about 1.1 µM and inactive = higher.
Below: a set of entries, each annotated with reported GI50.

{"compound": "CCOC(=O)CCC(C(=O)OCC)n1nc2ccc(Nc3c(C)[n+]([O-])c4ccc(Cl)cc4[n+]3[O-])cc2n1 (stereo not given)", "systemTested": "CCRF-CEM", "GI50": "41.2 µM (inactive)"}
{"compound": "C=C(CCC/C(C)=C/C=C/[C@]1(C)CCCc2ccoc21)CC(=O)O", "systemTested": "CCRF-CEM", "GI50": "50 µM (inactive)"}
{"compound": "CC(=O)OCC(OC(C)=O)C(OC(C)=O)C(OC(C)=O)C(/C=N\\Nc1nc2ccccc2c(=O)[nH]1)=N/Nc1nc2ccccc2c(=O)[nH]1 (stereo not given)", "systemTested": "CCRF-CEM", "GI50": "> 100 µM (inactive)"}
{"compound": "Cc1ccc(-c2nc3ccccc3c(=O)n2NCC2(O)OCC(O)C(O)C2O)cc1 (stereo not given)", "systemTested": "CCRF-CEM", "GI50": "> 100 µM (inactive)"}
{"compound": "O=[N+]([O-])/C(C(Cl)=C(Cl)Cl)=C(/Cl)SCc1ccccc1", "systemTested": "CCRF-CEM", "GI50": "0.202 µM (active)"}
{"compound": "COc1ccc(-c2cc(C(O)C3CCCCN3)c3ccccc3n2)cc1 (stereo not given)", "systemTested": "CCRF-CEM", "GI50": "2.8 µM (inactive)"}
{"compound": "C=C(Cl)C(Cl)(CBr)CCC(Cl)C(C)(C)Cl (stereo not given)", "systemTested": "CCRF-CEM", "GI50": "8.63 µM (inactive)"}
{"compound": "COc1cc(C(C)c2cc3c(cc2OCCO)OCO3)cc(OC)c1OC (stereo not given)", "systemTested": "CCRF-CEM", "GI50": "1.82 µM (inactive)"}
{"compound": "CC(=O)Oc1ccc2ccc(=O)oc2c1OC(C)=O", "systemTested": "CCRF-CEM", "GI50": "10.6 µM (inactive)"}
{"compound": "CC1=NN(c2nc(N)nc(CSc3nc4n(c(=S)n3)CCN4)n2)C(C)(C)C1", "systemTested": "CCRF-CEM", "GI50": "> 100 µM (inactive)"}

====

Test system: NCI-H522
Test: NCI tumour cell line growth inhibition, 48 h
Calls of active or inactive are those of the source. Cut-off read from the data, not from the text of the source: active = GI50 up to about 1.1 µM and inactive = higher.
outcomeMeasure: GI50

{"compound": "N#Cc1nc(CCc2nc(C#N)c(N)o2)oc1N", "outcomeMeasure": "GI50", "result": "> 10 µM (inactive)"}
{"compound": "COC(=O)Cc1c(C(=O)CC(C)(C)n2cnc(CCN3C(=O)CCC3=O)c2)[nH]c2ccccc12", "outcomeMeasure": "GI50", "result": "32.4 µM (inactive)"}
{"compound": "COC1=CC(C)C2C[C@H]3O[C@H](O)C[C@H]4C(C)C(=O)C(O)C([C@@]2(C)C1=O)[C@@]34C (stereo not given in full)", "outcomeMeasure": "GI50", "result": "> 100 µM (inactive)"}
{"compound": "c1c[nH]c(Cc2nc(Cc3c[nH]cn3)c[nH]2)n1", "outcomeMeasure": "GI50", "result": "12.2 µM (inactive)"}
{"compound": "COC(=O)N/N=C(/Cc1occc(=O)c1O)C(=O)Nc1ccc([N+](=O)[O-])cc1[N+](=O)[O-]", "outcomeMeasure": "GI50", "result": "> 100 µM (inactive)"}
{"compound": "C[n+]1c2ccccc2c(CNc2ccc(S(=O)(=O)N=C(N)N)cc2)c2ccccc21", "outcomeMeasure": "GI50", "result": "9.77 µM (inactive)"}
{"compound": "COC(=O)C(Cc1nc2ccccc2nc1O)C(=O)C(=O)Nc1cc(C(F)(F)F)ccc1Cl (stereo not given)", "outcomeMeasure": "GI50", "result": "3.87 µM (inactive)"}
{"compound": "OC1(c2ccccc2)CSc2ncnn21 (stereo not given)", "outcomeMeasure": "GI50", "result": "> 100 µM (inactive)"}
{"compound": "CC1CC(Nc2ccc(Br)cc2)N(C(=O)c2ccc(Br)cc2)O1 (stereo not given)", "outcomeMeasure": "GI50", "result": "8.07 µM (inactive)"}
{"compound": "CC1C(c2ccccc2)OP(=O)(OC(C#N)c2ccccc2)N1C (stereo not given)", "outcomeMeasure": "GI50", "result": "> 100 µM (inactive)"}

====

Tested on: SK-OV-3
Experiment: NCI tumour cell line growth inhibition, 48 h
Calls of active or inactive are those of the source. No stated cut-off is given here; in the data, active = GI50 up to about 1.1 µM and inactive = higher.

{"compound": "COC(=O)C(CC=O)C(=O)C(=O)Nc1cccc(C(F)(F)F)c1 (stereo unspecified)", "GI50": "> 100 µM (inactive)"}
{"compound": "CC(C)(C)[Si](C)(C)OCC1CCC(n2cnc3c(N)ncnc32)O1 (stereo unspecified)", "GI50": "65 µM (inactive)"}
{"compound": "O=C1OC(c2ccco2)=N/C1=C\\c1cccc([N+](=O)[O-])c1", "GI50": "> 100 µM (inactive)"}
{"compound": "c1ccc2sc(SSSc3nc4ccccc4s3)nc2c1", "GI50": "> 100 µM (inactive)"}
{"compound": "COc1ccc(C2SC(=N)Nc3c2c(C)nn3C(=O)c2ccncc2)cc1 (stereo unspecified)", "GI50": "> 100 µM (inactive)"}
{"compound": "COc1ccc2[nH]c3c(C)c4ccnc(NCCCN(C)CCCN)c4c(C)c3c2c1", "GI50": "0.838 µM (active)"}
{"compound": "COc1ccc2c(c1)c(=O)c1c(NCCNCCO)ccc3c(=O)n(CCN(C)C)c(=O)n2c31", "GI50": "0.251 µM (active)"}
{"compound": "CC(C)CCC1CC2C(=O)N(c3ccccc3)C(=O)C2c2[nH]c3ccccc3c21 (stereo unspecified)", "GI50": "1.36 µM (inactive)"}
{"compound": "O=c1c2cc(-c3ccccc3)cnc2sn1-c1ccc([N+](=O)[O-])cc1", "GI50": "26.9 µM (inactive)"}
{"compound": "Cn1c(CCC#N)nc2ccc(Br)cc2c1=O", "GI50": "> 100 µM (inactive)"}
{"compound": "OCC(O)C(O)C(O)c1nnn[nH]1 (stereo unspecified)", "GI50": "> 100 µM (inactive)"}
